- measuredOn: HLA-A*03:01 (Homo sapiens, UniProt P04439)
- testDescription: MHC binding assay, UV-ligand exchange with β2m ELISA, HLA-A*03:01
- measurementParameters: peptide exchange yield
measureName: Peptide exchange

Example entries begin here.
> print(dat)
                                  substance       measurename      endpointvalue
1  51 (ASTTVLALK; listed as Homo sapiens) [compound 51]  Peptide exchange   “++” (>20% = ++)
2  35 (ATKSPAKPK; listed as Homo sapiens) [compound 35]  Peptide exchange  “+++” (>50 = +++)
3  213 (RVYNIYIRR; listed as Homo sapiens) [compound 213]  Peptide exchange   “++” (>20% = ++)
4  212 (LLWHWDTTQSLK; listed as Homo sapiens) [compound 212]  Peptide exchange     “+” (>10% = +)
5  32 (KTSNIVKIK; listed as Homo sapiens) [compound 32]  Peptide exchange   “++” (>20% = ++)
6  44 (KVYDPVSEY; listed as Homo sapiens) [compound 44]  Peptide exchange   “++” (>20% = ++)
7  215 (KATGAATPK; listed as Homo sapiens) [compound 215]  Peptide exchange   “++” (>20% = ++)
8  210 (RMYSQLKTLQK; listed as Homo sapiens) [compound 210]  Peptide exchange  “+++” (>50 = +++)

Exam item: // returns reported Peptide exchange for input 42 (SVSSSTHFTR; listed as Homo sapiens) [compound 42]
Marked response: “++” (>20% = ++)
